- Test system: HT-29
- Assay Comment: SRB colorimetric assay of cell growth and viability, HT-29
- Assay type: cell-based, human
- Test Settings: 48 hours exposure, SRB; read-out: LC50 HT-29
Where a SMILES comes first, the peptide text is derived from it. Bridges are numbered along the chain shown (N, C = ends). [ ]: non-standard residue; d: D form. The star is where a group is joined. d(aIle) = CC[C@H](C)[C@@H](N)C(=O)O; d(aThr) = C[C@@H](O)[C@@H](N)C(=O)O; Hexanoyl(5-Me) = CC(C)CCCC(=O)*; Orn = NCCC[C@H](N)C(=O)O; Aib = CC(C)(N)C(=O)O
Quantity Kind: CC50
Answer format reminder: number followed by unit.

Exercise: Entry CC[C@H](C)[C@@H](NC(=O)[C@H](CCCN)NC(=O)[C@H]1CCCN1C(=O)[C@H](NC(=O)[C@@H](NC(=O)[C@@H](NC(=O)[C@H](NC(=O)CCCC(C)C)C(C)C)[C@@H](C)O)C(C)C)C(C)C)C(=O)N[C@H]1C(=O)N[C@H]([C@@H](C)CC)C(=O)N[C@H](C(C)C)C(=O)N[C@@H](Cc2ccccc2)C(=O)NC(C)(C)C(=O)N[C@@H](C(C)C)C(=O)O[C@@H]1C [Compound 66, [Aib^2]-KF] ({Hexanoyl(5-Me)}-[dV]TV[dV][dP][Orn][d(aIle)][d(aThr)][d(aIle)][dV]F[Aib]V; ester 8-C) has what CC50?
Key: 5060 nM

Exercise: Entry C/C=C1\NC(=O)[C@H](Cc2ccc(F)cc2)NC(=O)[C@@H](C(C)C)NC(=O)[C@@H]([C@@H](C)CC)NC(=O)[C@H](NC(=O)[C@H](NC(=O)[C@H](CCCN)NC(=O)[C@H]2CCCN2C(=O)[C@H](NC(=O)[C@@H](NC(=O)[C@@H](NC(=O)[C@H](NC(=O)CC[C@@H](C)CC)C(C)C)[C@@H](C)O)C(C)C)C(C)C)[C@@H](C)CC)[C@@H](C)OC(=O)[C@H](C(C)C)NC1=O [Compound 74, [Phe(4-F)^3, (4S)-MeHex^14]-KF] has what CC50?
Key: 499 nM

Now for a further compound.
Exercise: Entry C/C=C1\NC(=O)[C@H](Cc2c(F)c(F)c(F)c(F)c2F)NC(=O)[C@@H](C(C)C)NC(=O)[C@@H]([C@@H](C)CC)NC(=O)[C@H](NC(=O)[C@H](NC(=O)[C@H](CCCN)NC(=O)[C@H]2CCCN2C(=O)[C@H](NC(=O)[C@@H](NC(=O)[C@@H](NC(=O)[C@H](NC(=O)CC[C@@H](C)CC)C(C)C)[C@@H](C)O)C(C)C)C(C)C)[C@@H](C)CC)[C@@H](C)OC(=O)[C@H](C(C)C)NC1=O [Compound 71, [Phe(F5)^3, (4S)-MeHex^14]-KF] has what CC50?
Key: 267 nM

----------
Reported LC50 (concentration causing 50% net cell killing) is given for each of the following compounds.
- Tested on: IGROV-1
- Assay Comment: SRB colorimetric assay of cell growth and viability, IGROV-1
- Format: cell-based, human
- Test Settings: 48 hours exposure, SRB
Where a SMILES comes first, the peptide text is derived from it. Bridges are numbered along the chain shown (N, C = ends). [ ]: non-standard residue; d: D form. The star is where a group is joined. d(aIle) = CC[C@H](C)[C@@H](N)C(=O)O; d(aThr) = C[C@@H](O)[C@@H](N)C(=O)O; hCha = N[C@@H](CCC1CCCCC1)C(=O)O; Hexanoyl(5-Me) = CC(C)CCCC(=O)*; Orn = NCCC[C@H](N)C(=O)O; Dhb = C/C=C(\N)C(=O)O; Aib = CC(C)(N)C(=O)O; Dha = C=C(N)C(=O)O
Please give a number only; it is taken to be in µM.

// known answers, use as guide
Exercise: Entry C=C1NC(=O)[C@H](Cc2ccccc2)NC(=O)[C@@H](C(C)C)NC(=O)[C@@H]([C@@H](C)CC)NC(=O)[C@H](NC(=O)[C@H](NC(=O)[C@H](CCCN)NC(=O)[C@H]2CCCN2C(=O)[C@H](NC(=O)[C@@H](NC(=O)[C@@H](NC(=O)[C@H](NC(=O)CCCC(C)C)C(C)C)[C@@H](C)O)C(C)C)C(C)C)[C@@H](C)CC)[C@@H](C)OC(=O)[C@H](C(C)C)NC1=O [Compound 67, [Dha^2]-KF] ({Hexanoyl(5-Me)}-[dV]TV[dV][dP][Orn][d(aIle)][d(aThr)][d(aIle)][dV]F[Dha]V; ester 8-C) has what LC50 (concentration causing 50% net cell killing)?
Key: 4.59

Exercise: Entry CC[C@H](C)[C@@H](NC(=O)[C@H](CCCN)NC(=O)[C@H]1CCCN1C(=O)[C@H](NC(=O)[C@@H](NC(=O)[C@@H](NC(=O)[C@H](NC(=O)CCCC(C)C)C(C)C)[C@@H](C)O)C(C)C)C(C)C)C(=O)N[C@H]1C(=O)N[C@H]([C@@H](C)CC)C(=O)N[C@H](C(C)C)C(=O)N[C@@H](Cc2ccccc2)C(=O)NC(C)(C)C(=O)N[C@@H](C(C)C)C(=O)O[C@@H]1C [Compound 66, [Aib^2]-KF] ({Hexanoyl(5-Me)}-[dV]TV[dV][dP][Orn][d(aIle)][d(aThr)][d(aIle)][dV]F[Aib]V; ester 8-C) has what LC50 (concentration causing 50% net cell killing)?
Key: 5.05

Exercise: Entry C/C=C1\NC(=O)[C@H](Cc2ccc(F)cc2)NC(=O)[C@@H](C(C)C)NC(=O)[C@@H]([C@@H](C)CC)NC(=O)[C@H](NC(=O)[C@H](NC(=O)[C@H](CCCN)NC(=O)[C@H]2CCCN2C(=O)[C@H](NC(=O)[C@@H](NC(=O)[C@@H](NC(=O)[C@H](NC(=O)CC[C@@H](C)CC)C(C)C)[C@@H](C)O)C(C)C)C(C)C)[C@@H](C)CC)[C@@H](C)OC(=O)[C@H](C(C)C)NC1=O [Compound 74, [Phe(4-F)^3, (4S)-MeHex^14]-KF] has what LC50 (concentration causing 50% net cell killing)?
Key: 0.943

Now for a further compound.
Exercise: Entry C/C=C1\NC(=O)[C@H](CCC2CCCCC2)NC(=O)[C@@H](C(C)C)NC(=O)[C@@H]([C@@H](C)CC)NC(=O)[C@H](NC(=O)[C@H](NC(=O)[C@H](CCCN)NC(=O)[C@H]2CCCN2C(=O)[C@H](NC(=O)[C@@H](NC(=O)[C@@H](NC(=O)[C@H](NC(=O)CCCC(C)C)C(C)C)[C@@H](C)O)C(C)C)C(C)C)[C@@H](C)CC)[C@@H](C)OC(=O)[C@H](C(C)C)NC1=O [Compound 63] ({Hexanoyl(5-Me)}-[dV]TV[dV][dP][Orn][d(aIle)][d(aThr)][d(aIle)][dV][hCha][Dhb]V; ester 8-C) has what LC50 (concentration causing 50% net cell killing)?
Key: 2

----------
- Tested on: A-549
- Assay Comment: SRB colorimetric assay of cell growth and viability, A-549
- Type: cell-based, human
- Test Settings: 48 hours exposure; read-out: LC50 A-549
Quantity Kind: CC50 (µM)
Please give a number only; it is taken to be in µM.

Exercise: Entry C/C=C1\NC(=O)[C@H](Cc2ccccc2)NC(=O)[C@@H](C(C)C)NC(=O)[C@@H]([C@@H](C)CC)NC(=O)[C@H](NC(=O)[C@H](NC(=O)[C@H](CCCN)NC(=O)[C@H]2CCCN2C(=O)[C@H](NC(=O)[C@@H](NC(=O)[C@@H](NC(=O)[C@H](NC(=O)Cc2ccc(C(F)(F)F)cc2)C(C)C)[C@@H](C)O)C(C)C)C(C)C)[C@@H](C)CC)[C@@H](C)OC(=O)[C@H](C(C)C)NC1=O [Compound 25, [p-CF3PhAc^14]-KF] has what CC50?
Key: 3.24

----------
Reported CC50 is given for each of the following molecules.
- Test system: A-549
- Assay Comment: SRB colorimetric assay of cell growth and viability, A-549
- Assay type: cell-based, human
- Test Settings: 48 hours exposure; read-out: LC50 A-549
Answer format reminder: number followed by unit.

Exercise: Give the reported CC50 for C/C=C1\NC(=O)[C@H](Cc2ccccc2)NC(=O)[C@@H](C(C)C)NC(=O)[C@@H]([C@@H](C)CC)NC(=O)[C@H](NC(=O)[C@H](NC(=O)[C@H](CCCN)NC(=O)[C@H]2CCCN2C(=O)[C@H](NC(=O)[C@@H](NC(=O)[C@@H](NC(=O)[C@H](NC(=O)CCCCC(C)=O)C(C)C)[C@@H](C)O)C(C)C)C(C)C)[C@@H](C)CC)[C@@H](C)OC(=O)[C@H](C(C)C)NC1=O [Compound 27, [6-OHep^14]-KF] (system: A-549).
Key: 6.7 µM

Now for a further molecule.
Exercise: Give the reported CC50 for C/C=C1\NC(=O)[C@H](Cc2ccccc2)NC(=O)[C@@H](C(C)C)NC(=O)[C@@H]([C@@H](C)CC)NC(=O)[C@H](NC(=O)[C@H](NC(=O)[C@H](CCCN)NC(=O)[C@H]2CCCN2C(=O)[C@H](NC(=O)[C@@H](NC(=O)[C@@H](NC(=O)[C@H]2CCCN2C(=O)CCCC(C)C)[C@@H](C)O)C(C)C)C(C)C)[C@@H](C)CC)[C@@H](C)OC(=O)[C@H](C(C)C)NC1=O [Compound 37, [D-Pro^13]-KF] (system: A-549).
Key: 0.813 µM
